# Test System: XIAP BIR3 (N-His-Tb-BIR3(241-356, XIAP)) (Homo sapiens (Human))
# Sequence (P98170 241-356): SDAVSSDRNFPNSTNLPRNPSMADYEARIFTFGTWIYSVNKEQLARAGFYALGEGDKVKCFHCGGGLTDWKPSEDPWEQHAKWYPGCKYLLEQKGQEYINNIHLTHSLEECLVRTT
# Type: binding
# Protocol Conditions: 130 nM N-His-Tb-BIR3(241-356, XIAP), 1.4 nM fluoresceinated modified SMAC peptide, 60 minutes room temperature; read-out: XIAP BIR3 FPA IC50
Result Type: pIC50
The read-out pIC50 is expressed as -log10 of concentration in moles per litre.

Quick check: pIC50 of `CCC[C@H](c1ccccc1)N(Cc1ccc(C(=O)N[C@H]2C[C@@H](C(=O)N[C@@H]3CCCc4ccccc43)N(C(=O)[C@@H](NC(=O)[C@H](C)NC)C(C)(C)C)C2)cc1)C(=O)[C@@H]1Cc2ccccc2CN1C(=O)[C@@H](NC(=O)[C@H](C)NC)C(C)(C)C` ?
6.72

Need pIC50 of CN[C@@H](C)C(=O)N[C@H](C(=O)N1C[C@@H](NC(=O)n2ccc3cc(CN(C(=O)[C@@H]4Cc5ccccc5CN4C(=O)[C@@H](NC(=O)[C@H](C)NC)C(C)(C)C)C(COC)c4ccccc4)ccc32)C[C@H]1C(=O)N[C@@H]1CCCc2ccccc21)C(C)(C)C (stereo in doubt) , thanks.
6.89

Any idea what pIC50 was measured for `CN[C@@H](C)C(=O)N[C@H](C(=O)N1C[C@@H](NC(=O)c2ccc(CN(C(=O)[C@@H]3Cc4ccccc4CN3C(=O)[C@@H](NC(=O)[C@H](C)NC)C(C)(C)C)[C@H](C)Cc3ccccc3F)cc2)C[C@H]1C(=O)N[C@@H]1CCCc2ccccc21)C(C)(C)C` ?
7.22

Quick check: pIC50 of `CN[C@@H](C)C(=O)N[C@H](C(=O)N1C[C@@H](NC(=O)C2(CN(C(=O)[C@@H]3Cc4ccccc4CN3C(=O)[C@@H](NC(=O)[C@H](C)NC)C(C)(C)C)[C@H](C)c3cccc(F)c3F)CC2)C[C@H]1C(=O)N[C@@H]1CCCc2ccccc21)C(C)(C)C` ?
6.74
